The reported numbers originate from patent US20030044399A1.

// values below are reported pKi
Biological target: Cruzain (Trypanosoma cruzi)
Sequence (P25779 123-337): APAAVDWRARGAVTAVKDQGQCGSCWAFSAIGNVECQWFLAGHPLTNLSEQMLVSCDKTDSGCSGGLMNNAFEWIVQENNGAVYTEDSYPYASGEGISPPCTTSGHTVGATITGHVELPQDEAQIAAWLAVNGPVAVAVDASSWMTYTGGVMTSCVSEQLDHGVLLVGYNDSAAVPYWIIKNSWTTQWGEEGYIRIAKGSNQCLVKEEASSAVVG
Assay: Cysteine protease inhibition, progress curve method, cruzain
Type: biochemical
Conditions: 4 uM Ac-Lys-Glu-Lys-Leu-Arg-AMC, 100 mM Na acetate pH 5.5, 5 mM cysteine; read-out: Cruzain Ki
pKi: −log10 of the molar value.
Measurement Label: pKi

>  <Molecule>
Cc1c(C(=O)N[C@@H](CC(C)C)C(=O)N[C@H]2CCCN(C(=O)Nc3ccccc3F)CC2=O)oc2ccccc12

>  <Target Desc>
Cruzain (Trypanosoma cruzi)

>  <Measurement Label>
pKi

>  <Value Reported>
8.16

$$$$
>  <Molecule>
CC(C)C[C@@H](NC(=O)c1nccc2ccccc12)C(=O)N[C@@H]1CCCN(S(=O)(=O)c2ccccn2)CC1=O (single isomer, unassigned) [Example 154]

>  <Target Desc>
Cruzain (Trypanosoma cruzi)

>  <Measurement Label>
pKi

>  <Value Reported>
8.36

$$$$
>  <Molecule>
CC(C)C[C@@H](NC(=O)c1ccc2ncccc2c1)C(=O)N[C@@H]1CCCN(S(=O)(=O)c2ccccn2)CC1=O (single isomer, unassigned) [Example 152]

>  <Target Desc>
Cruzain (Trypanosoma cruzi)

>  <Measurement Label>
pKi

>  <Value Reported>
8.70

$$$$
>  <Molecule>
CC(C)C[C@@H](NC(=O)c1cnc2ccccc2n1)C(=O)N[C@@H]1CCCN(S(=O)(=O)c2ccccn2)CC1=O (stereo in doubt)

>  <Target Desc>
Cruzain (Trypanosoma cruzi)

>  <Measurement Label>
pKi

>  <Value Reported>
7.77

$$$$
>  <Molecule>
CC(C)C[C@H](NC(=O)c1cc2ccccc2o1)C(=O)N[C@H]1C[C@H](C)CN(S(=O)(=O)c2ccccn2)CC1=O (single isomer, unassigned) [Example 167]

>  <Target Desc>
Cruzain (Trypanosoma cruzi)

>  <Measurement Label>
pKi

>  <Value Reported>
8.46

$$$$
>  <Molecule>
CC(C)C[C@H](NC(=O)c1cccc2ncccc12)C(=O)N[C@H]1CCCN(S(=O)(=O)c2ccccn2)CC1=O

>  <Target Desc>
Cruzain (Trypanosoma cruzi)

>  <Measurement Label>
pKi

>  <Value Reported>
8.74

$$$$
>  <Molecule>
COc1cccc2cc(C(=O)N[C@@H](CC(C)C)C(=O)N[C@H]3CCCN(S(=O)(=O)c4ccccc4F)CC3=O)oc12

>  <Target Desc>
Cruzain (Trypanosoma cruzi)

>  <Measurement Label>
pKi

>  <Value Reported>
7.96

$$$$
>  <Molecule>
CC(C)C[C@H](NC(=O)c1cc2ccccc2o1)C(=O)N[C@H]1CCCN(S(=O)(=O)c2ccccc2F)CC1=O

>  <Target Desc>
Cruzain (Trypanosoma cruzi)

>  <Measurement Label>
pKi

>  <Value Reported>
8.21

$$$$
>  <Molecule>
COc1cc2cc(C(=O)N[C@H](CC(C)C)C(=O)N[C@@H]3CCCN(S(=O)(=O)c4cccc[n+]4[O-])CC3=O)oc2cc1OC

>  <Target Desc>
Cruzain (Trypanosoma cruzi)

>  <Measurement Label>
pKi

>  <Value Reported>
7.32

$$$$
>  <Molecule>
COc1ccc(S(=O)(=O)N2CCCC(NC(=O)C(CC(C)C)NC(=O)c3cc4ccccc4o3)C(=O)C2)cc1 (stereo in doubt)

>  <Target Desc>
Cruzain (Trypanosoma cruzi)

>  <Measurement Label>
pKi

>  <Value Reported>
7.62

$$$$
>  <Molecule>
COc1ccc(C(=O)N[C@@H](CC(C)C)C(=O)N[C@@H]2CCCN(S(=O)(=O)c3ccc(F)cc3)CC2=O)cc1OC

>  <Target Desc>
Cruzain (Trypanosoma cruzi)

>  <Measurement Label>
pKi

>  <Value Reported>
8.13

$$$$
>  <Molecule>
CC(C)C[C@H](NC(=O)c1cnc2ccccc2n1)C(=O)N[C@@H]1CCCN(S(=O)(=O)c2cccs2)CC1=O

>  <Target Desc>
Cruzain (Trypanosoma cruzi)

>  <Measurement Label>
pKi

>  <Value Reported>
8.12

$$$$
>  <Molecule>
CC(C)C[C@H](NC(=O)c1cc2ccccc2o1)C(=O)NC1CCCN(S(=O)(=O)c2cccc(F)c2)CC1=O (stereo partly drawn)

>  <Target Desc>
Cruzain (Trypanosoma cruzi)

>  <Measurement Label>
pKi

>  <Value Reported>
8.15

$$$$
>  <Molecule>
Cc1c(C(=O)N[C@H](CC(C)C)C(=O)N[C@H]2CCCN(S(=O)(=O)c3cccc[n+]3[O-])CC2=O)oc2ccc(F)cc12 (single isomer, unassigned) [Example 195]

>  <Target Desc>
Cruzain (Trypanosoma cruzi)

>  <Measurement Label>
pKi

>  <Value Reported>
8.03

$$$$
>  <Molecule>
CC(C)C[C@@H](NC(=O)c1cc2cc(OCCN3CCOCC3)ccc2o1)C(=O)N[C@@H]1CCCN(S(=O)(=O)c2ccccc2)CC1=O (single isomer, unassigned) [Example 7]

>  <Target Desc>
Cruzain (Trypanosoma cruzi)

>  <Measurement Label>
pKi

>  <Value Reported>
7.64

$$$$
>  <Molecule>
CC(C)C[C@@H](NC(=O)c1cc2cc(F)c(F)cc2o1)C(=O)N[C@@H]1CCCN(S(=O)(=O)c2ccccn2)CC1=O (stereo in doubt) [Example 149]

>  <Target Desc>
Cruzain (Trypanosoma cruzi)

>  <Measurement Label>
pKi

>  <Value Reported>
8.04

$$$$
>  <Molecule>
CC(C)C[C@@H](NC(=O)c1cc2cc(OCCN3CCOCC3)ccc2o1)C(=O)N[C@@H]1CCCN(S(=O)(=O)c2ccccn2)CC1=O (single isomer, unassigned) [Example 20]

>  <Target Desc>
Cruzain (Trypanosoma cruzi)

>  <Measurement Label>
pKi

>  <Value Reported>
8.10

$$$$
>  <Molecule>
CC(C)C[C@@H](NC(=O)c1ccnc2ccccc12)C(=O)N[C@@H]1CCCN(S(=O)(=O)c2ccccn2)CC1=O (stereo in doubt) [Example 26]

>  <Target Desc>
Cruzain (Trypanosoma cruzi)

>  <Measurement Label>
pKi

>  <Value Reported>
8.03

$$$$
>  <Molecule>
CC(C)C[C@@H](NC(=O)c1cc2cc(F)c(F)cc2o1)C(=O)N[C@@H]1CCCN(S(=O)(=O)c2ccccn2)CC1=O (single isomer, unassigned) [Example 150]

>  <Target Desc>
Cruzain (Trypanosoma cruzi)

>  <Measurement Label>
pKi

>  <Value Reported>
8.27

$$$$
>  <Molecule>
CC(C)C[C@@H](NC(=O)c1nccc2ccccc12)C(=O)N[C@@H]1CCCN(S(=O)(=O)c2ccccn2)CC1=O (stereo in doubt) [Example 29]

>  <Target Desc>
Cruzain (Trypanosoma cruzi)

>  <Measurement Label>
pKi

>  <Value Reported>
7.96

$$$$
>  <Molecule>
COc1cccc2cc(C(=O)N[C@@H](CC(C)C)C(=O)N[C@H]3CCCN(S(=O)(=O)c4nccs4)CC3=O)oc12

>  <Target Desc>
Cruzain (Trypanosoma cruzi)

>  <Measurement Label>
pKi

>  <Value Reported>
8.40

$$$$
>  <Molecule>
CC(C)C[C@H](NC(=O)[C@H]1CCC(=O)N1Cc1ccccc1)C(=O)N[C@@H]1CCCN(S(=O)(=O)c2ccccn2)CC1=O

>  <Target Desc>
Cruzain (Trypanosoma cruzi)

>  <Measurement Label>
pKi

>  <Value Reported>
8.17

$$$$
>  <Molecule>
CC(C)CC(NC(=O)c1ccc(S(C)(=O)=O)cc1)C(=O)N[C@@H]1CCCN(S(=O)(=O)c2ccccc2C#N)CC1=O (stereo partly drawn)

>  <Target Desc>
Cruzain (Trypanosoma cruzi)

>  <Measurement Label>
pKi

>  <Value Reported>
7.85

$$$$
>  <Molecule>
CC(C)C[C@@H](NC(=O)c1cc2ccccc2o1)C(=O)N[C@@H]1CCCN(S(=O)(=O)c2ccccn2)CC1=O

>  <Target Desc>
Cruzain (Trypanosoma cruzi)

>  <Measurement Label>
pKi

>  <Value Reported>
8.21

$$$$
